- MEASURED TARGET: GluA1 AMPA receptor subunit (flip isoform) (Homo sapiens)
- Construct: expressed in transfected cells; host or cells: HEK293
- RUN DESCRIPTION: Whole-cell patch-clamp electrophysiology, homomeric GluA1 expressed in HEK293 cells
- Type: cell-based
- TEST SETTINGS: 10 mM glutamate, 12 µM compound, n = 10
PROPERTY NAME: A/AI (current with glutamate alone / current with glutamate + compound)

Fill in the blank: the reported A/AI (current with glutamate alone / current with glutamate + compound) of O=C(CCCCC1CCSS1)OCCCCCCO (centres unmarked) [LA4, 1-Hydroxy-6-Lipoester] is ____.
7.79

Fill in the blank: the reported A/AI (current with glutamate alone / current with glutamate + compound) of O=C(CCCCC1CCSS1)OCCCO[N+](=O)[O-] (centres unmarked) [LA2, 1-Nitrooxy–propane-3-lipoyl ester] is ____.
11.53

Fill in the blank: the reported A/AI (current with glutamate alone / current with glutamate + compound) of O=C(CCCCC1CCSS1)OCCCCCCO[N+](=O)[O-] (centres unmarked) [LA3, 1-Nitrooxy–Hexane-6-lipoyl ester] is ____.
8.13

Fill in the blank: the reported A/AI (current with glutamate alone / current with glutamate + compound) of O=C(O)CCCCC1CCSS1 (stereo not drawn) [α-LA, alpha-Lipoic acid, reference compound] is ____.
9.26

Fill in the blank: the reported A/AI (current with glutamate alone / current with glutamate + compound) of O=C(CCCCC1CCSS1)OCCCO (centres unmarked) [LA1, 1-Hydroxy-3-Lipo Ester] is ____.
10.43

----------
- MEASURED TARGET: GluA1/2 AMPA receptor subunits (flip isoform) (Homo sapiens, UniProt P42261+P42262)
- Construct: expressed in transfected cells; host or cells: HEK293
- RUN DESCRIPTION: Whole-cell patch-clamp electrophysiology, heteromeric GluA1/2 expressed in HEK293 cells
- Assay type: cell-based
- TEST SETTINGS: glutamate + 12 µM compound, glutamate alone 5.3±0.4 ms
PROPERTY NAME: t des (weighted desensitization time constant) (ms)
Reply numerically in ms, unit not repeated.

Recorded t des (weighted desensitization time constant) for O=C(CCCCC1CCSS1)OCCCO[N+](=O)[O-] (centres unmarked) with GluA1/2 AMPA receptor subunits (flip isoform) (Homo sapiens, UniProt P42261+P42262), please?
2.7

Recorded t des (weighted desensitization time constant) for O=C(CCCCC1CCSS1)OCCCO (centres unmarked) [LA1, 1-Hydroxy-3-Lipo Ester] with GluA1/2 AMPA receptor subunits (flip isoform) (Homo sapiens, UniProt P42261+P42262), please?
2.8

Recorded t des (weighted desensitization time constant) for O=C(CCCCC1CCSS1)OCCCCCCO (centres unmarked) [LA4, 1-Hydroxy-6-Lipoester] with GluA1/2 AMPA receptor subunits (flip isoform) (Homo sapiens, UniProt P42261+P42262), please?
3.7

Recorded t des (weighted desensitization time constant) for O=C(CCCCC1CCSS1)OCCCCCCO[N+](=O)[O-] (centres unmarked) with GluA1/2 AMPA receptor subunits (flip isoform) (Homo sapiens, UniProt P42261+P42262), please?
3.6

Recorded t des (weighted desensitization time constant) for O=C(O)CCCCC1CCSS1 (stereo not drawn) [α-LA, alpha-Lipoic acid, reference compound] with GluA1/2 AMPA receptor subunits (flip isoform) (Homo sapiens, UniProt P42261+P42262), please?
3.3

----------
Form field: t des (weighted desensitization time constant) (one value per entry).
- MEASURED TARGET: GluA2/3 AMPA receptor subunits (flip isoform) (Homo sapiens, UniProt P42262+P42263)
- Construct: expressed in transfected cells; host or cells: HEK293
- Sequence (P42262 25-883 isoform P42262-2 limits assumed): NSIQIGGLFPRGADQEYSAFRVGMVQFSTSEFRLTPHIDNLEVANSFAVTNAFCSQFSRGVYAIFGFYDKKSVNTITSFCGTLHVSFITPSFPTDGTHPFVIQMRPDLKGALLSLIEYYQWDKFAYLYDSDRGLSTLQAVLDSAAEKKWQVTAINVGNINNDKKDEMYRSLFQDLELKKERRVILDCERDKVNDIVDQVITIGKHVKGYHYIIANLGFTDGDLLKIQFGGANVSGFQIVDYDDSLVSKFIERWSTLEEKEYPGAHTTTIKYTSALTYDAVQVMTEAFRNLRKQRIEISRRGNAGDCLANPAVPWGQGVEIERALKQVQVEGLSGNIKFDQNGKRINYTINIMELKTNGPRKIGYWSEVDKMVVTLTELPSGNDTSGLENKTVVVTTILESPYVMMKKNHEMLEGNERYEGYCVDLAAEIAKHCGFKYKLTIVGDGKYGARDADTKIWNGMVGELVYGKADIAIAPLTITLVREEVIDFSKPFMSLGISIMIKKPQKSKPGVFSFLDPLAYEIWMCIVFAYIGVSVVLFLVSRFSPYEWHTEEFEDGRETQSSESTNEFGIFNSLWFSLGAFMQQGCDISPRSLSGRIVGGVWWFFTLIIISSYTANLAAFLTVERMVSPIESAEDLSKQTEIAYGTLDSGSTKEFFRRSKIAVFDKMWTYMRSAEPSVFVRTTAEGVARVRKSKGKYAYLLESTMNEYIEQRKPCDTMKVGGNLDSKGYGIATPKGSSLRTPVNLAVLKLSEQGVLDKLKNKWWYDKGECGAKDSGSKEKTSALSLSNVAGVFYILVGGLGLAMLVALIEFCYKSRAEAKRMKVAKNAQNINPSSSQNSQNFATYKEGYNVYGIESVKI
- Sequence (P42263 29-894 isoform P42263-2 limits assumed): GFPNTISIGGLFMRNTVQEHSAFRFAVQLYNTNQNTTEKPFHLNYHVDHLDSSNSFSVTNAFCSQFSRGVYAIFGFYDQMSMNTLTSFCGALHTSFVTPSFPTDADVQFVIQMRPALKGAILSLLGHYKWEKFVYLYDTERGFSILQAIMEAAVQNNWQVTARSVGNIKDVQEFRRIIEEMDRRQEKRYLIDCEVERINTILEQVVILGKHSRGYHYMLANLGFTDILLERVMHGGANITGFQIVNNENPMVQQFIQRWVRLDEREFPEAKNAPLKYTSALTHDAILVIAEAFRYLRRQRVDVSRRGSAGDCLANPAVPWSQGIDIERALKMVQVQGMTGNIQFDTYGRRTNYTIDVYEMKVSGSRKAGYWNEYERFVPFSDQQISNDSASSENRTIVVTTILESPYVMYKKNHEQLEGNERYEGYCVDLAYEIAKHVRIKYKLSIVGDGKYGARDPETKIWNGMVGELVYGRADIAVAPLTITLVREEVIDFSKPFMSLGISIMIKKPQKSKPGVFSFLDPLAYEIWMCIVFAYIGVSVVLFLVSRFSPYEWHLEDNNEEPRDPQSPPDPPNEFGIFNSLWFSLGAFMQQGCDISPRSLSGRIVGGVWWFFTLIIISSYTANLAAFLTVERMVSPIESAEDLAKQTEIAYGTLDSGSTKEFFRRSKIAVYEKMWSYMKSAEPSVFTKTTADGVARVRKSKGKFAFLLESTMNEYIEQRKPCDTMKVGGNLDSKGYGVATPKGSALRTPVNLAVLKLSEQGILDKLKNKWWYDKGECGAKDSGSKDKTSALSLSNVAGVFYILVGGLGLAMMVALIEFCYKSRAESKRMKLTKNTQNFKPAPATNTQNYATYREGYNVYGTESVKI
- RUN DESCRIPTION: Whole-cell patch-clamp electrophysiology, heteromeric GluA2/3 expressed in HEK293 cells
- Format: cell-based
- TEST SETTINGS: glutamate + 12 µM compound, glutamate alone 2.7±0.3 ms
Reply numerically in ms, unit not repeated.

Fill in the blank: the reported t des (weighted desensitization time constant) of O=C(CCCCC1CCSS1)OCCCO[N+](=O)[O-] (centres unmarked) [LA2, 1-Nitrooxy–propane-3-lipoyl ester] is ____.
0.9

Fill in the blank: the reported t des (weighted desensitization time constant) of O=C(O)CCCCC1CCSS1 (stereo not drawn) [α-LA, alpha-Lipoic acid, reference compound] is ____.
1.6

Fill in the blank: the reported t des (weighted desensitization time constant) of O=C(CCCCC1CCSS1)OCCCCCCO (centres unmarked) [LA4, 1-Hydroxy-6-Lipoester] is ____.
2.0

Fill in the blank: the reported t des (weighted desensitization time constant) of O=C(CCCCC1CCSS1)OCCCCCCO[N+](=O)[O-] (centres unmarked) [LA3, 1-Nitrooxy–Hexane-6-lipoyl ester] is ____.
1.9

Kindly review the next compound as well.
Fill in the blank: the reported t des (weighted desensitization time constant) of O=C(CCCCC1CCSS1)OCCCO (centres unmarked) [LA1, 1-Hydroxy-3-Lipo Ester] is ____.
1.2

----------
- MEASURED TARGET: GluA2/3 AMPA receptor subunits (flip isoform) (Homo sapiens, UniProt P42262+P42263)
- Construct: expressed in transfected cells; host or cells: HEK293
- RUN DESCRIPTION: Whole-cell patch-clamp electrophysiology, heteromeric GluA2/3 expressed in HEK293 cells
- Type: cell-based
- TEST SETTINGS: Hill fit, read-out: Log IC50 (converted)
PROPERTY NAME: IC50 (µM)

Recorded IC50 for O=C(CCCCC1CCSS1)OCCCO[N+](=O)[O-] (centres unmarked) [LA2, 1-Nitrooxy–propane-3-lipoyl ester] with GluA2/3 AMPA receptor subunits (flip isoform) (Homo sapiens, UniProt P42262+P42263), please?
3.63

Recorded IC50 for O=C(O)CCCCC1CCSS1 (stereo not drawn) [α-LA, alpha-Lipoic acid, reference compound] with GluA2/3 AMPA receptor subunits (flip isoform) (Homo sapiens, UniProt P42262+P42263), please?
3.98

Recorded IC50 for O=C(CCCCC1CCSS1)OCCCCCCO[N+](=O)[O-] (centres unmarked) [LA3, 1-Nitrooxy–Hexane-6-lipoyl ester] with GluA2/3 AMPA receptor subunits (flip isoform) (Homo sapiens, UniProt P42262+P42263), please?
4.47

Recorded IC50 for O=C(CCCCC1CCSS1)OCCCO (centres unmarked) [LA1, 1-Hydroxy-3-Lipo Ester] with GluA2/3 AMPA receptor subunits (flip isoform) (Homo sapiens, UniProt P42262+P42263), please?
3.8

Recorded IC50 for O=C(CCCCC1CCSS1)OCCCCCCO (centres unmarked) [LA4, 1-Hydroxy-6-Lipoester] with GluA2/3 AMPA receptor subunits (flip isoform) (Homo sapiens, UniProt P42262+P42263), please?
4.79

----------
- MEASURED TARGET: GluA2/3 AMPA receptor subunits (flip isoform) (Homo sapiens, UniProt P42262+P42263)
- Construct: expressed in transfected cells; host or cells: HEK293
- RUN DESCRIPTION: Whole-cell patch-clamp electrophysiology, heteromeric GluA2/3 expressed in HEK293 cells
- Assay type: cell-based
- TEST SETTINGS: 10 mM glutamate, 12 µM compound, n = 10
- Protocol: Up to 20 μg of high-copy plasmid DNA was prepared using the QIAGEN Plasmid Mini Kit, the tubes were then centrifuged to extract the supernatant containing the plasmid DNA, ethanol was used to wash the DNA pellet, then centrifuged again and the supernatant was carefully removed as to not disturb the pellet, finally, the pellet was air-dried, and the DNA was re-dissolved in a suitable volume of buffer, (our prior study detailed the whole DNA preparation data). […]
PROPERTY NAME: A/AI (current with glutamate alone / current with glutamate + compound)

Fill in the blank: the reported A/AI (current with glutamate alone / current with glutamate + compound) of O=C(CCCCC1CCSS1)OCCCCCCO (centres unmarked) [LA4, 1-Hydroxy-6-Lipoester] is ____.
7.58

Fill in the blank: the reported A/AI (current with glutamate alone / current with glutamate + compound) of O=C(CCCCC1CCSS1)OCCCCCCO[N+](=O)[O-] (centres unmarked) is ____.
7.84

Fill in the blank: the reported A/AI (current with glutamate alone / current with glutamate + compound) of O=C(O)CCCCC1CCSS1 (stereo not drawn) [α-LA, alpha-Lipoic acid, reference compound] is ____.
8.93

Fill in the blank: the reported A/AI (current with glutamate alone / current with glutamate + compound) of O=C(CCCCC1CCSS1)OCCCO[N+](=O)[O-] (centres unmarked) is ____.
11.03

Fill in the blank: the reported A/AI (current with glutamate alone / current with glutamate + compound) of O=C(CCCCC1CCSS1)OCCCO (centres unmarked) [LA1, 1-Hydroxy-3-Lipo Ester] is ____.
10.14

----------
- MEASURED TARGET: GluA1 AMPA receptor subunit (flip isoform) (Homo sapiens, UniProt P42261)
- Construct: expressed in transfected cells; host or cells: HEK293
- Sequence (P42261 19-906 isoform P42261-2 limits assumed): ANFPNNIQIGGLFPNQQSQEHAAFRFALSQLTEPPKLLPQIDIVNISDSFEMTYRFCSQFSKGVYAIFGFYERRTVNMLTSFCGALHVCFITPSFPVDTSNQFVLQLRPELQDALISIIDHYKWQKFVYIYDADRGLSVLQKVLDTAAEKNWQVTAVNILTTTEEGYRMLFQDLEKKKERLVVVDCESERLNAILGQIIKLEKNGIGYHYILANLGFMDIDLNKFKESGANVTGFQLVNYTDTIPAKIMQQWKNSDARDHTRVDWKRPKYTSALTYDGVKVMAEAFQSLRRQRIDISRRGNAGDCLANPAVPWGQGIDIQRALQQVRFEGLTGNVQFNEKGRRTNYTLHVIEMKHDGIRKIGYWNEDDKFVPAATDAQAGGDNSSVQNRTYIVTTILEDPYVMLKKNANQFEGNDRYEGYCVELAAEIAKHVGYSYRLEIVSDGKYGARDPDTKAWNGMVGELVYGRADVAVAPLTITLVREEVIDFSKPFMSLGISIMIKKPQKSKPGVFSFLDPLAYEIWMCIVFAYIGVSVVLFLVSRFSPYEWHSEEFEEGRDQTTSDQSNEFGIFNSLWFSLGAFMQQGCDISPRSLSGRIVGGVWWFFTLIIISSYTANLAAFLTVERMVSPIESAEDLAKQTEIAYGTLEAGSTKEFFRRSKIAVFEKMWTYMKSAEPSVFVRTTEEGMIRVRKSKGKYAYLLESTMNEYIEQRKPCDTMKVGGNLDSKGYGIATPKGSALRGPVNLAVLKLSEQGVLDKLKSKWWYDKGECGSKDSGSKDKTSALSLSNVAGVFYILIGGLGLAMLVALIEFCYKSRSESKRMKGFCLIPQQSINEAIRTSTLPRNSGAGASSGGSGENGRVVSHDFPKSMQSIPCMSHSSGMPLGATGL
- RUN DESCRIPTION: Whole-cell patch-clamp electrophysiology, homomeric GluA1 expressed in HEK293 cells
- Format: cell-based
- TEST SETTINGS: whole-cell normalized peak amplitude, Hill fit, unit printed in the text, not in Table S6, read-out: IC50
pIC50: −log10 of the molar value.
PROPERTY NAME: pIC50

Fill in the blank: the reported pIC50 of O=C(CCCCC1CCSS1)OCCCCCCO[N+](=O)[O-] (centres unmarked) is ____.
5.44

Fill in the blank: the reported pIC50 of O=C(CCCCC1CCSS1)OCCCO[N+](=O)[O-] (centres unmarked) is ____.
5.47

Fill in the blank: the reported pIC50 of O=C(CCCCC1CCSS1)OCCCO (centres unmarked) [LA1, 1-Hydroxy-3-Lipo Ester] is ____.
5.46

Fill in the blank: the reported pIC50 of O=C(O)CCCCC1CCSS1 (stereo not drawn) [α-LA, alpha-Lipoic acid, reference compound] is ____.
5.45

Fill in the blank: the reported pIC50 of O=C(CCCCC1CCSS1)OCCCCCCO (centres unmarked) [LA4, 1-Hydroxy-6-Lipoester] is ____.
5.38

Ref: paper PMC9688225
